# Tested on: Enterococcus faecalis
# measurement description: In vitro minimum inhibitory concentration against Streptococcus faecalis ATCC 7080
# Format: functional
endpoint label: MIC
Answer with the figure and its unit, nothing else.

Below, each entry is followed by its recorded MIC result.
CN(C)CCCCNC(=O)[C@H]1NC(=O)[C@H]2NC(=O)[C@H](NC(=O)[C@@H]3NC(=O)[C@H]4NC(=O)[C@@H](Cc5ccc(c(Cl)c5)Oc5cc3cc(c5O)Oc3ccc(cc3Cl)[C@H]2O)NC(=O)[C@H](N)c2ccc(O)c(c2)Oc2cc(O)cc4c2)c2ccc(O)c(c2)-c2c(O)cc(O)cc21 :: 0.12 µg/mL
NCCCCCCNC(=O)[C@H]1NC(=O)[C@H]2NC(=O)[C@H](NC(=O)[C@@H]3NC(=O)[C@H]4NC(=O)[C@@H](Cc5ccc(c(Cl)c5)Oc5cc3cc(c5O)Oc3ccc(cc3Cl)[C@H]2O)NC(=O)[C@H](N)c2ccc(O)c(c2)Oc2cc(O)cc4c2)c2ccc(O)c(c2)-c2c(O)cc(O)cc21 :: 0.12 µg/mL

Shifting focus to the compound that follows.
Exercise: Provide the documented MIC with Enterococcus faecalis as the system for `CNCCNC(=O)[C@H]1NC(=O)[C@H]2NC(=O)[C@H](NC(=O)[C@@H]3NC(=O)[C@H]4NC(=O)[C@@H](Cc5ccc(c(Cl)c5)Oc5cc3cc(c5O)Oc3ccc(cc3Cl)[C@H]2O)NC(=O)[C@H](N)c2ccc(O)c(c2)Oc2cc(O)cc4c2)c2ccc(O)c(c2)-c2c(O)cc(O)cc21`
Key: 0.12 µg/mL

----------
Can you tell me MIC for the items I'm about to list?
# System: Streptococcus pneumoniae
# measurement description: In vitro minimum inhibitory concentration against Streptococcus pneumoniae UC41
# Format: functional
Answers are plain numbers, in µg/mL.

CC(=O)N[C@@H]1[C@H](O[C@@H]2c3ccc(c(Cl)c3)Oc3cc4cc(c3O)Oc3ccc(cc3Cl)C[C@H]3NC(=O)[C@H](N)c5ccc(O)c(c5)Oc5cc(O)cc(c5)[C@H](NC3=O)C(=O)N[C@H]4C(=O)N[C@H]3C(=O)N[C@@H]2C(=O)N[C@H](C(=O)N2CCSCC2)c2cc(O)cc(O[C@H]4O[C@H](CO)[C@@H](O)[C@@H](O)[C@@H]4O)c2-c2cc3ccc2O)O[C@@H](CO)[C@@H](O)[C@@H]1O :: 0.5
CN(C)CCNC(=O)[C@H]1NC(=O)[C@H]2NC(=O)[C@H](NC(=O)[C@@H]3NC(=O)[C@H]4NC(=O)[C@@H](Cc5ccc(c(Cl)c5)Oc5cc3cc(c5O)Oc3ccc(cc3Cl)[C@H]2O)NC(=O)[C@H](N)c2ccc(O)c(c2)Oc2cc(O)cc4c2)c2ccc(O)c(c2)-c2c(O)cc(O)cc21 :: 0.12
CC(=O)N[C@@H]1[C@H](O[C@@H]2c3ccc(c(Cl)c3)Oc3cc4cc(c3O)Oc3ccc(cc3Cl)C[C@H]3NC(=O)[C@H](N)c5ccc(O)c(c5)Oc5cc(O)cc(c5)[C@H](NC3=O)C(=O)N[C@H]4C(=O)N[C@H]3C(=O)N[C@@H]2C(=O)N[C@H](C(=O)N2CCN(C)CC2)c2cc(O)cc(O[C@H]4O[C@H](CO)[C@@H](O)[C@@H](O)[C@@H]4O)c2-c2cc3ccc2O)O[C@@H](CO)[C@@H](O)[C@@H]1O :: 1
CC(=O)N[C@@H]1[C@H](O[C@@H]2c3ccc(c(Cl)c3)Oc3cc4cc(c3O[C@@H]3O[C@@H](CO)[C@@H](O)[C@H](O)[C@@H]3NC(=O)CCCCCCC(C)C)Oc3ccc(cc3Cl)C[C@H]3NC(=O)[C@H](N)c5ccc(O)c(c5)Oc5cc(O)cc(c5)[C@H](NC3=O)C(=O)N[C@H]4C(=O)N[C@H]3C(=O)N[C@@H]2C(=O)N[C@H](C(=O)N2CCSCC2)c2cc(O)cc(O[C@H]4O[C@H](CO)[C@@H](O)[C@@H](O)[C@@H]4O)c2-c2cc3ccc2O)O[C@@H](CO)[C@@H](O)[C@@H]1O :: 0.12

Shifting focus to the molecule that follows.
Exercise: What does the data say about its MIC? Entry: `CNCCCNC(=O)[C@H]1NC(=O)[C@H]2NC(=O)[C@H](NC(=O)[C@@H]3NC(=O)[C@H]4NC(=O)[C@@H](Cc5ccc(c(Cl)c5)Oc5cc3cc(c5O)Oc3ccc(cc3Cl)[C@H]2O)NC(=O)[C@H](N)c2ccc(O)c(c2)Oc2cc(O)cc4c2)c2ccc(O)c(c2)-c2c(O)cc(O)cc21`
Key: 0.12

----------
Can you tell me ED50 for the items I'm about to list?
# Tested on: Streptococcus pyogenes
# measurement description: Subcutaneously administration into mice infected with Streptococcus pyogenes C 203
# Format: functional
# test settings: sc
Answers are plain numbers, in mg/kg.

CC(=O)N[C@@H]1[C@H](O[C@@H]2c3ccc(c(Cl)c3)Oc3cc4cc(c3O[C@@H]3O[C@@H](CO)[C@@H](O)[C@H](O)[C@@H]3NC(=O)CCCCCCC(C)C)Oc3ccc(cc3Cl)C[C@H]3NC(=O)[C@H](N)c5ccc(O)c(c5)Oc5cc(O)cc(c5)[C@H](NC3=O)C(=O)N[C@H]4C(=O)N[C@H]3C(=O)N[C@@H]2C(=O)N[C@H](C(=O)NCCCN2CCOCC2)c2cc(O)cc(O[C@H]4O[C@H](CO)[C@@H](O)[C@@H](O)[C@@H]4O)c2-c2cc3ccc2O)O[C@@H](CO)[C@@H](O)[C@@H]1O :: 0.18

Exercise: What does the data say about its ED50? Entry: `CCOC(=O)CNC(=O)[C@H]1NC(=O)[C@H]2NC(=O)[C@H](NC(=O)[C@@H]3NC(=O)[C@H]4NC(=O)[C@@H](Cc5ccc(c(Cl)c5)Oc5cc3cc(c5O)Oc3ccc(cc3Cl)[C@H]2O[C@@H]2O[C@@H](CO)[C@@H](O)[C@H](O)[C@@H]2NC(C)=O)NC(=O)[C@H](N)c2ccc(O)c(c2)Oc2cc(O)cc4c2)c2ccc(O)c(c2)-c2c(O)cc(O)cc21`
Key: 5

----------
# System: Streptococcus pneumoniae
# measurement description: In vitro minimum inhibitory concentration against Streptococcus pneumoniae UC41
# Type: functional
endpoint label: MIC (µg/mL)
Numbers only, in µg/mL.

Answer for every listed entry: what is its MIC? The entries follow.
1. NCCCCCCNC(=O)[C@H]1NC(=O)[C@H]2NC(=O)[C@H](NC(=O)[C@@H]3NC(=O)[C@H]4NC(=O)[C@@H](Cc5ccc(c(Cl)c5)Oc5cc3cc(c5O)Oc3ccc(cc3Cl)[C@H]2O)NC(=O)[C@H](N)c2ccc(O)c(c2)Oc2cc(O)cc4c2)c2ccc(O)c(c2)-c2c(O)cc(O)cc21
2. CCN(CC)CCCNC(=O)[C@H]1NC(=O)[C@H]2NC(=O)[C@H](NC(=O)[C@@H]3NC(=O)[C@H]4NC(=O)[C@@H](Cc5ccc(c(Cl)c5)Oc5cc3cc(c5O[C@@H]3O[C@@H](CO)[C@@H](O)[C@H](O)[C@@H]3NC(=O)CCCCCCC(C)C)Oc3ccc(cc3Cl)[C@H]2O[C@@H]2O[C@@H](CO)[C@@H](O)[C@H](O)[C@@H]2NC(C)=O)NC(=O)[C@H](N)c2ccc(O)c(c2)Oc2cc(O)cc4c2)c2ccc(O)c(c2)-c2c(O[C@H]3O[C@H](CO)[C@@H](O)[C@@H](O)[C@@H]3O)cc(O)cc21
3. CN(C)CCCCNC(=O)[C@H]1NC(=O)[C@H]2NC(=O)[C@H](NC(=O)[C@@H]3NC(=O)[C@H]4NC(=O)[C@@H](Cc5ccc(c(Cl)c5)Oc5cc3cc(c5O)Oc3ccc(cc3Cl)[C@H]2O)NC(=O)[C@H](N)c2ccc(O)c(c2)Oc2cc(O)cc4c2)c2ccc(O)c(c2)-c2c(O)cc(O)cc21
4. CNCCNC(=O)[C@H]1NC(=O)[C@H]2NC(=O)[C@H](NC(=O)[C@@H]3NC(=O)[C@H]4NC(=O)[C@@H](Cc5ccc(c(Cl)c5)Oc5cc3cc(c5O[C@@H]3O[C@@H](CO)[C@@H](O)[C@H](O)[C@@H]3NC(=O)CCCCCCC(C)C)Oc3ccc(cc3Cl)[C@H]2O[C@@H]2O[C@@H](CO)[C@@H](O)[C@H](O)[C@@H]2NC(C)=O)NC(=O)[C@H](N)c2ccc(O)c(c2)Oc2cc(O)cc4c2)c2ccc(O)c(c2)-c2c(O[C@H]3O[C@H](CO)[C@@H](O)[C@@H](O)[C@@H]3O)cc(O)cc21

Key:
1. 0.06
2. 0.06
3. 0.12
4. 0.12

----------
# Test system: Ac2-L-Lys-D-Ala-D-Ala peptide
# measurement description: Association constant with Ac2-L-Lys-D-Ala-D-Ala
endpoint label: Ka (M⁻¹)
Answers are plain numbers, in M⁻¹.

Below, each entry is followed by its recorded Ka result.
CNCCCNC(=O)[C@H]1NC(=O)[C@H]2NC(=O)[C@H](NC(=O)[C@@H]3NC(=O)[C@H]4NC(=O)[C@@H](Cc5ccc(c(Cl)c5)Oc5cc3cc(c5O[C@@H]3O[C@@H](CO)[C@@H](O)[C@H](O)[C@@H]3NC(=O)CCCCCCC(C)C)Oc3ccc(cc3Cl)[C@H]2O[C@@H]2O[C@@H](CO)[C@@H](O)[C@H](O)[C@@H]2NC(C)=O)NC(=O)[C@H](N)c2ccc(O)c(c2)Oc2cc(O)cc4c2)c2ccc(O)c(c2)-c2c(O[C@H]3O[C@H](CO)[C@@H](O)[C@@H](O)[C@@H]3O)cc(O)cc21 :: 66000
N[C@H]1C(=O)N[C@@H]2Cc3ccc(c(Cl)c3)Oc3cc4cc(c3O)Oc3ccc(cc3Cl)[C@@H](O)[C@@H]3NC(=O)[C@H](NC(=O)[C@@H]4NC(=O)[C@@H](NC2=O)c2cc(O)cc(c2)Oc2cc1ccc2O)c1ccc(O)c(c1)-c1c(O)cc(O)cc1[C@@H](C(=O)O)NC3=O :: 30000

Shifting focus to the compound that follows.
Exercise: What does the data say about its Ka? Entry: `CN(C)CCCNC(=O)[C@H]1NC(=O)[C@H]2NC(=O)[C@H](NC(=O)[C@@H]3NC(=O)[C@H]4NC(=O)[C@@H](Cc5ccc(c(Cl)c5)Oc5cc3cc(c5O)Oc3ccc(cc3Cl)[C@H]2O)NC(=O)[C@H](N)c2ccc(O)c(c2)Oc2cc(O)cc4c2)c2ccc(O)c(c2)-c2c(O)cc(O)cc21`
Key: 55000
